Target chain: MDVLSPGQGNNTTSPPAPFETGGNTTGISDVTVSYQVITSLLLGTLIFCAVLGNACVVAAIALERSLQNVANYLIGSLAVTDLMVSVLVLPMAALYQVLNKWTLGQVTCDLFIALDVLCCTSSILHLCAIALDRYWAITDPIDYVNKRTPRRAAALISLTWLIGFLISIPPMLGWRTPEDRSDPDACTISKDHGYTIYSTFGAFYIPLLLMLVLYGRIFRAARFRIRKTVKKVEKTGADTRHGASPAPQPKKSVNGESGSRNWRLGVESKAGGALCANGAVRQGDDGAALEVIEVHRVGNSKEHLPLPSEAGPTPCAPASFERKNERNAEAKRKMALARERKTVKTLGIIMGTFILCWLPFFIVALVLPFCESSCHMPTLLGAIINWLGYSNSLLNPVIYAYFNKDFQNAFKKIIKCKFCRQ
pKd: −log10 of the molar value.

>  <COMPOUND>
COc1ccccc1N1CCN(CCN(C(=O)c2ccc(F)cc2)c2ccccn2)CC1 [[methyl-^3H]-MPPF]

>  <pKd>
9.46

$$$$

----------
# SYSTEM_TESTED: 5HT1AR-GFP-1D4 fusion protein (Homo sapiens, UniProt P08908)
# Construct: homogenized membranes), transgene pXOP-5HTR-GFP-1D4
# Sequence (P08908 with tags, fused parts or gaps): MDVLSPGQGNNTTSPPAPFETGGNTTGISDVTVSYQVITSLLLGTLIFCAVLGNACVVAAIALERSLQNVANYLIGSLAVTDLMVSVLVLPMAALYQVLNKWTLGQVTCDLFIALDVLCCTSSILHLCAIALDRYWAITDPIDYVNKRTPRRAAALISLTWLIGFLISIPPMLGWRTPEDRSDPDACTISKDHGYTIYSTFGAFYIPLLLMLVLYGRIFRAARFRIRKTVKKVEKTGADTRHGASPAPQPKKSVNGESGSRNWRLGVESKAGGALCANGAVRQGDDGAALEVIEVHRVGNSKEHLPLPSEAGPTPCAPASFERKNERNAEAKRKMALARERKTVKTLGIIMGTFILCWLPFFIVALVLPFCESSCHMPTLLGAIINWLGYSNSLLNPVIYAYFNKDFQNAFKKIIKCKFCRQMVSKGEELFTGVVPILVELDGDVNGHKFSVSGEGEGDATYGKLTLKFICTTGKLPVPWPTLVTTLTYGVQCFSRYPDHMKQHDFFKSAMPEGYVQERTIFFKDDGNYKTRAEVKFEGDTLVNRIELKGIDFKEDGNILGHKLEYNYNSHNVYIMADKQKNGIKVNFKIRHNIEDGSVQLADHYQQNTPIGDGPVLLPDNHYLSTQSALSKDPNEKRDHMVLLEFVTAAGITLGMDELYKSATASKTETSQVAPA
# ASSAY_SUMMARY: Saturation radioligand binding to transgenic tadpole membranes expressing 5HT1AR-GFP-1D4
# ASSAY_CONDITIONS: transgenic Xenopus tadpole membranes expressing 5HT1AR-GFP-1D4, 0.05% saponin, saturation binding; read-out: binding affinity KD
MEASURED_METRIC: Kd (nM)

>  <MOLECULE>
COc1ccccc1N1CCN(CCN(C(=O)c2ccc(F)cc2)c2ccccn2)CC1 [[methyl-^3H]-MPPF]

>  <MEASURED_METRIC>
Kd

>  <TEST_VALUE>
6.7

$$$$
